Test system: MT2
Test: Cytotoxicity against human MT2 cells assessed as inhibition of cell growth
Assay type: toxicity, cell-based
OBSERVED_PROPERTY: CC50 (µM)

>>> df
                                   molecule  target_desc  unit_symbol  test_value
0  N#Cc1ccc(Nc2ncc(Cc3c(F)cc(-c4ccc(OS(=O)(=O)F)cc4)cc3F)o2)cc1Cl          MT2           µM          25
1  COc1ccc(-c2ccc(Cc3cnc(Nc4ccc(C#N)cc4)o3)cc2)cc1          MT2           µM          27
2  N#Cc1ccc(Nc2ncc(Cc3c(F)cc(-c4ccc(OS(=O)(=O)F)cc4)cc3F)o2)cc1          MT2           µM          30
3  N#Cc1ccc(Nc2ncc(Cc3ccc(-c4ccccc4)cc3)o2)cc1          MT2           µM          80
4  N#Cc1ccc(Nc2ncc(Cc3c(F)cc(-c4ccc(C5CO5)cc4)cc3F)o2)cc1Cl (stereo unspecified)          MT2           µM          25
5  N#Cc1ccc(Nc2ncc(Cc3c(F)cc(-c4ccccc4)cc3F)o2)cc1          MT2           µM          59

---

Overview of reported pIC50 across a group of compounds:
Target: Human immunodeficiency virus type 1 reverse transcriptase (Human immunodeficiency virus 1, UniProt Q72547)
Assay: Inhibition of recombinant wildtype HIV-1 reverse transcriptase using r(A)350 as template and d(T)16 as primer preincubated with compound for 1 hrs followed by template/primer addition and measured after 30 mins by picogreen based plate reader analysis
pIC50: −log10 of the molar value.
OBSERVED_PROPERTY: pIC50

In [3]: df
Out[3]:
                                   compound  observed_property  value_prefix  test_value
0  N#Cc1ccc(Nc2ncc(Cc3c(F)cc(-c4ccc(C5CO5)cc4)cc3F)o2)cc1Cl (stereo not given)              pIC50             =        6.36
1  N#Cc1ccc(Nc2ncc(Cc3c(F)cc(-c4ccc(OS(=O)(=O)F)cc4)cc3F)o2)cc1Cl              pIC50             =        5.52
2  N#Cc1ccc(Nc2ncc(Cc3c(F)cc(-c4ccccc4)cc3F)o2)cc1              pIC50             =        7.70
3  COc1ccc(-c2ccc(Cc3cnc(Nc4ccc(C#N)cc4)o3)cc2)cc1              pIC50             <        5.00
4  N#Cc1ccc(Nc2ncc(Cc3c(F)cc(-c4ccc(OS(=O)(=O)F)cc4)cc3F)o2)cc1              pIC50             <        4.70

---

Test system: MT2
Test: Cytotoxicity against human MT2 cells assessed as inhibition of cell growth
Format: toxicity, cell-based
OBSERVED_PROPERTY: CC50 (µM)

>>> print(df.to_string())
                            chemical_string  observed_property  test_value
0  N#Cc1ccc(-c2cc(F)c(Cc3cnc(Nc4ccc(C#N)c(Cl)c4)o3)c(F)c2)cc1               CC50         9.5
1  N#Cc1ccc(Nc2ncc(Cc3c(F)cc(-c4ccc(O)cc4)cc3F)o2)cc1Cl               CC50          15
2  N#Cc1ccc(Nc2ncc(Cc3c(F)cc(-c4ccc(O)cc4)cc3F)o2)cc1               CC50          15
3  N#Cc1ccc(Nc2ncc(Cc3c(F)cc(-c4ccc(C#N)cc4)cc3F)o2)cc1               CC50           9
4  C=Cc1ccc(-c2cc(F)c(Cc3cnc(Nc4ccc(C#N)c(Cl)c4)o3)c(F)c2)cc1               CC50          30

---

Target: Human immunodeficiency virus type 1 reverse transcriptase (Human immunodeficiency virus 1)
Test: Inhibition of recombinant wildtype HIV-1 reverse transcriptase using r(A)350 as template and d(T)16 as primer preincubated with compound for 1 hrs followed by template/primer addition and measured after 30 mins by picogreen based plate reader analysis
pIC50: −log10 of the molar value.
Overview of reported pIC50 across a group of compounds:
OBSERVED_PROPERTY: pIC50

>>> df
                            chemical_string                               target_desc  value_prefix  test_value
0  N#Cc1ccc(Nc2ncc(Cc3c(F)cc(-c4ccc(O)cc4)cc3F)o2)cc1Cl  Human immunodeficiency virus type 1 reverse transcriptase (Human immunodeficiency virus 1)             =        6.55
1  N#Cc1ccc(Nc2ncc(Cc3c(F)cc(-c4ccc(O)cc4)cc3F)o2)cc1  Human immunodeficiency virus type 1 reverse transcriptase (Human immunodeficiency virus 1)             <        6.00
2  N#Cc1ccc(Nc2ncc(Cc3ccc(-c4ccccc4)cc3)o2)cc1  Human immunodeficiency virus type 1 reverse transcriptase (Human immunodeficiency virus 1)             <        4.00
3  N#Cc1ccc(Nc2ncc(Cc3c(F)cc(-c4ccc(C#N)cc4)cc3F)o2)cc1  Human immunodeficiency virus type 1 reverse transcriptase (Human immunodeficiency virus 1)             =        7.96
4  C=Cc1ccc(-c2cc(F)c(Cc3cnc(Nc4ccc(C#N)c(Cl)c4)o3)c(F)c2)cc1  Human immunodeficiency virus type 1 reverse transcriptase (Human immunodeficiency virus 1)             =        7.77
5  N#Cc1ccc(-c2cc(F)c(Cc3cnc(Nc4ccc(C#N)c(Cl)c4)o3)c(F)c2)cc1  Human immunodeficiency virus type 1 reverse transcriptase (Human immunodeficiency virus 1)             >        8.00
